Origin of the recorded values: ChEMBL document CHEMBL1201862

# Test system: T47D
# assay.name: NCI tumour cell line growth inhibition, 48 h
Active and inactive are the calls of the source. No stated cut-off is given here; in the data, active = GI50 up to about 1.1 µM and inactive = higher.
property.label: GI50

Examples with their reported GI50 follow.
O=c1[nH]c(Nc2ccc(Br)c(C(F)(F)F)c2)nc2[nH]cnc12: 32.7 µM (inactive)
CCOc1cnc(C(O)(c2ccccc2)c2ccccc2)o1: > 100 µM (inactive)
Cc1ccc(/C=C2/N/C(=N\N=C/c3ccccc3)NC2=O)cc1: 28.7 µM (inactive)

Form: Entry = O=CNNC(=O)CSc1nc2ccc(I)cc2c(=O)n1Cc1ccccc1 | System = T47D | GI50 = ____ 33.4 µM (inactive)

Form: Entry = CO/N=C(\C)CCC#Cc1ccccc1C(=O)OC | System = T47D | GI50 = ____ > 10 µM (inactive)

Form: Entry = CCn1c2ccccc2c2ccc(C3C(C(=O)OC)=C(C)NC(C)=C3C(=O)OC)cc21 | System = T47D | GI50 = ____ 63.8 µM (inactive)
